Sourced from paper PMC6332220

tested on: Escherichia coli; assay: Disk diffusion, Escherichia coli; type: cell-based; conditions: Gram negative, 8.0 mm disks, 10 μL
PROPERTY_MEASURED: Inhibition Zone Diameter (IZ) (mm) Escherichia coli

COMPOUND	OBSERVED_MEASUREMENT
Clc1nc2ccc(Br)cc2n2nnnc12 [Compound 4]	17
Clc1ccc(C=NNc2nc3cc(Br)ccc3nc2Cl)cc1 [Compound 8]	11
NC1=NN(c2nc3ccc(Br)cc3nc2N2N=C(N)CC2=O)C(=O)C1 [Compound 16]	10
Brc1ccc2c(c1)n1nnnc1c1nnnn21 [Compound 11]	15
Cc1cc(C)n(-c2nc3ccc(Br)cc3nc2-n2nc(C)cc2C)n1 [Compound 15]	10
CC1=NN(c2nc3ccc(Br)cc3nc2N2N=C(C)CC2=O)C(=O)C1 [Compound 17]	11
Cc1cc(C)n(-c2nc3cc(Br)ccc3nc2NN)n1 [Compound 14]	12
NNc1nc2cc(Br)ccc2n2nnnc12 [Compound 7]	10
NNc1nc2cc(Br)ccc2nc1Cl [Compound 3, 6-Bromo-2-chloro-3-hydrazinylquinoxaline]	13
Cc1c[nH]nc2c3n[nH]cc(C)n-3c3cc(Br)ccc3n1-2 [Compound 12]	17
CNC(C)C1CCC(N)C(OC2C(N)CC(N)C(OC3OCC(C)(O)C(NC)C3O)C2O)O1 (stereo not drawn) [Gentamicin, reference compound]	20
Brc1ccc2nc(N3CCCCC3)c3nnnn3c2c1 [Compound 5a]	13
NNc1nc2ccc(Br)cc2nc1NN [Compound 9, 6-Bromo-2,3-dihydrazinylquinoxaline]	29
Brc1ccc2nc(N3CCOCC3)c3nnnn3c2c1 [Compound 5b]	11
Cc1cc(C)n(-c2nc3cc(Br)ccc3nc2Cl)n1 [Compound 6]	11

====

Inhibition Zone Diameter (IZ) (mm) Bacillus subtilis by entry:
system: Bacillus subtilis; experiment: Disk diffusion, Bacillus subtilis; format: cell-based; details: Gram positive, 8.0 mm disks, 10 μL
PROPERTY_MEASURED: Inhibition Zone Diameter (IZ) (mm) Bacillus subtilis

COMPOUND	OBSERVED_MEASUREMENT
Cc1cc(C)n(-c2nc3cc(Br)ccc3nc2Cl)n1	11
NC1=NN(c2nc3ccc(Br)cc3nc2N2N=C(N)CC2=O)C(=O)C1	10
Cc1cc(C)n(-c2nc3cc(Br)ccc3nc2NN)n1	12
Clc1ccc(C=NNc2nc3cc(Br)ccc3nc2Cl)cc1	9
Clc1nc2ccc(Br)cc2n2nnnc12	20
NNc1nc2cc(Br)ccc2n2nnnc12	11
Brc1ccc2nc(N3CCOCC3)c3nnnn3c2c1	17
CC1=NN(c2nc3ccc(Br)cc3nc2N2N=C(C)CC2=O)C(=O)C1	7
CC1(C)S[C@@H]2[C@H](NC(=O)[C@H](N)c3ccccc3)C(=O)N2[C@H]1C(=O)O [Ampicillin, reference compound]	20
Brc1ccc2nc(N3CCCCC3)c3nnnn3c2c1	13
NNc1nc2ccc(Br)cc2nc1NN [Compound 9, 6-Bromo-2,3-dihydrazinylquinoxaline]	28
Cc1cc(C)n(-c2nc3ccc(Br)cc3nc2-n2nc(C)cc2C)n1	10
Cc1c[nH]nc2c3n[nH]cc(C)n-3c3cc(Br)ccc3n1-2	18
NNc1nc2cc(Br)ccc2nc1Cl [Compound 3, 6-Bromo-2-chloro-3-hydrazinylquinoxaline]	15
Brc1ccc2c(c1)n1nnnc1c1nnnn21	19

====

COMPOUND	melting point
Clc1ccc(C=NNc2nc3cc(Br)ccc3nc2Cl)cc1 [Compound 8]	187 to 189 °C
NNc1nc2cc(Br)ccc2nc1Cl [Compound 3, 6-Bromo-2-chloro-3-hydrazinylquinoxaline]	201 to 203 °C
Brc1ccc2nc(N3CCOCC3)c3nnnn3c2c1 [Compound 5b]	144 to 146 °C
NNc1nc2cc(Br)ccc2n2nnnc12 [Compound 7]	237 to 239 °C
Clc1nc2ccc(Br)cc2n2nnnc12 [Compound 4]	199 to 201 °C
Cc1cc(C)n(-c2nc3cc(Br)ccc3nc2NN)n1 [Compound 14]	164 to 166 °C
Brc1ccc2nc(N3CCCCC3)c3nnnn3c2c1 [Compound 5a]	122 to 123 °C
CC1=NN(c2nc3ccc(Br)cc3nc2N2N=C(C)CC2=O)C(=O)C1 [Compound 17]	152 to 154 °C
Cc1cc(C)n(-c2nc3cc(Br)ccc3nc2Cl)n1 [Compound 6]	81 to 83 °C
NC1=NN(c2nc3ccc(Br)cc3nc2N2N=C(N)CC2=O)C(=O)C1 [Compound 16]	232 to 233 °C

====

system: Salmonella typhimurium; assay: Disk diffusion, Salmonella typhimurium; type: cell-based; details: Gram negative, 8.0 mm disks, 10 μL
Doc: threshold 10 mm (exclusive). Items with Inhibition Zone Diameter (IZ) (mm) Salmonella typhimurium beneath it return yes (1); others return no (0).

COMPOUND	CATEGORY_LABEL
Cc1c[nH]nc2c3n[nH]cc(C)n-3c3cc(Br)ccc3n1-2	no (0)
NNc1nc2cc(Br)ccc2n2nnnc12	yes (1)
CC1=NN(c2nc3ccc(Br)cc3nc2N2N=C(C)CC2=O)C(=O)C1	yes (1)
NNc1nc2cc(Br)ccc2nc1Cl [Compound 3, 6-Bromo-2-chloro-3-hydrazinylquinoxaline]	no (0)
Brc1ccc2c(c1)n1nnnc1c1nnnn21	no (0)
Cc1cc(C)n(-c2nc3cc(Br)ccc3nc2Cl)n1	yes (1)
Clc1ccc(C=NNc2nc3cc(Br)ccc3nc2Cl)cc1	yes (1)
Brc1ccc2nc(N3CCOCC3)c3nnnn3c2c1	no (0)
CNC(C)C1CCC(N)C(OC2C(N)CC(N)C(OC3OCC(C)(O)C(NC)C3O)C2O)O1 (stereo not drawn) [Gentamicin, reference compound]	no (0)
Clc1nc2ccc(Br)cc2n2nnnc12	no (0)
NNc1nc2ccc(Br)cc2nc1NN [Compound 9, 6-Bromo-2,3-dihydrazinylquinoxaline]	no (0)
Brc1ccc2nc(N3CCCCC3)c3nnnn3c2c1	no (0)

====

tested on: Neisseria gonorrhoeae; experiment: Disk diffusion, Neisseria gonorrhoeae; assay type: cell-based; conditions: Gram negative, 8.0 mm disks, 10 μL
PROPERTY_MEASURED: Inhibition Zone Diameter (IZ) (mm) Neisseria gonorrhoeae

COMPOUND	ASSAYED_TARGET	RESULT_UNIT	OBSERVED_MEASUREMENT
NNc1nc2ccc(Br)cc2nc1NN [Compound 9, 6-Bromo-2,3-dihydrazinylquinoxaline]	Neisseria gonorrhoeae	mm	28
NNc1nc2cc(Br)ccc2n2nnnc12	Neisseria gonorrhoeae	mm	10
Cc1cc(C)n(-c2nc3ccc(Br)cc3nc2-n2nc(C)cc2C)n1	Neisseria gonorrhoeae	mm	9
NNc1nc2cc(Br)ccc2nc1Cl [Compound 3, 6-Bromo-2-chloro-3-hydrazinylquinoxaline]	Neisseria gonorrhoeae	mm	14
Cc1cc(C)n(-c2nc3cc(Br)ccc3nc2Cl)n1	Neisseria gonorrhoeae	mm	11
CC1=NN(c2nc3ccc(Br)cc3nc2N2N=C(C)CC2=O)C(=O)C1	Neisseria gonorrhoeae	mm	6
NC1=NN(c2nc3ccc(Br)cc3nc2N2N=C(N)CC2=O)C(=O)C1	Neisseria gonorrhoeae	mm	11
CNC(C)C1CCC(N)C(OC2C(N)CC(N)C(OC3OCC(C)(O)C(NC)C3O)C2O)O1 (stereo not drawn) [Gentamicin, reference compound]	Neisseria gonorrhoeae	mm	18
Clc1ccc(C=NNc2nc3cc(Br)ccc3nc2Cl)cc1	Neisseria gonorrhoeae	mm	9
Cc1cc(C)n(-c2nc3cc(Br)ccc3nc2NN)n1	Neisseria gonorrhoeae	mm	12
Clc1nc2ccc(Br)cc2n2nnnc12	Neisseria gonorrhoeae	mm	21

====

system: Candida albicans; experiment: Disk diffusion, Candida albicans; type: cell-based; settings: Fungi, 8.0 mm disks, 10 μL
PROPERTY_MEASURED: Inhibition Zone Diameter (IZ) (mm) Candida albicans

MOLECULE	OBSERVED_MEASUREMENT
NC1=NN(c2nc3ccc(Br)cc3nc2N2N=C(N)CC2=O)C(=O)C1 [Compound 16]	R (R (IZ = 0 mm))
Cc1c[nH]nc2c3n[nH]cc(C)n-3c3cc(Br)ccc3n1-2 [Compound 12]	R (R (IZ = 0 mm))
NNc1nc2cc(Br)ccc2n2nnnc12 [Compound 7]	R (R (IZ = 0 mm))
Brc1ccc2c(c1)n1nnnc1c1nnnn21 [Compound 11]	R (R (IZ = 0 mm))
Brc1ccc2nc(N3CCOCC3)c3nnnn3c2c1 [Compound 5b]	9 mm
Clc1nc2ccc(Br)cc2n2nnnc12 [Compound 4]	20 mm
Cc1cc(C)n(-c2nc3ccc(Br)cc3nc2-n2nc(C)cc2C)n1 [Compound 15]	R (R (IZ = 0 mm))
Clc1ccc(C=NNc2nc3cc(Br)ccc3nc2Cl)cc1 [Compound 8]	R (R (IZ = 0 mm))
Brc1ccc2nc(N3CCCCC3)c3nnnn3c2c1 [Compound 5a]	12 mm
NNc1nc2cc(Br)ccc2nc1Cl [Compound 3, 6-Bromo-2-chloro-3-hydrazinylquinoxaline]	R (R (IZ = 0 mm))
CC1=NN(c2nc3ccc(Br)cc3nc2N2N=C(C)CC2=O)C(=O)C1 [Compound 17]	R (R (IZ = 0 mm))
Cc1cc(C)n(-c2nc3cc(Br)ccc3nc2NN)n1 [Compound 14]	R (R (IZ = 0 mm))
C[C@@H]1[C@H](O)[C@@H](C)/C=C/C=C/C=C/C=C/C=C/C=C/C=C/[C@H](O[C@@H]2O[C@H](C)[C@@H](O)[C@H](N)[C@@H]2O)C[C@@H]2O[C@](O)(C[C@@H](O)C[C@@H](O)[C@H](O)CC[C@@H](O)C[C@@H](O)CC(=O)O[C@H]1C)C[C@H](O)[C@H]2C(=O)O [Amphotericin B, reference compound]	19 mm
Cc1cc(C)n(-c2nc3cc(Br)ccc3nc2Cl)n1 [Compound 6]	R (R (IZ = 0 mm))
NNc1nc2ccc(Br)cc2nc1NN [Compound 9, 6-Bromo-2,3-dihydrazinylquinoxaline]	11 mm
